Target: human Cot catalytic domain (30-397 amino acids) (Homo sapiens, UniProt P41279)
Construct: Purified recombinant human Cot catalytic domain (30-397 amino acids) was purchased from Cama Biosciences; purchased Cama Biosciences (so in the source)
Sequence (P41279 30-397): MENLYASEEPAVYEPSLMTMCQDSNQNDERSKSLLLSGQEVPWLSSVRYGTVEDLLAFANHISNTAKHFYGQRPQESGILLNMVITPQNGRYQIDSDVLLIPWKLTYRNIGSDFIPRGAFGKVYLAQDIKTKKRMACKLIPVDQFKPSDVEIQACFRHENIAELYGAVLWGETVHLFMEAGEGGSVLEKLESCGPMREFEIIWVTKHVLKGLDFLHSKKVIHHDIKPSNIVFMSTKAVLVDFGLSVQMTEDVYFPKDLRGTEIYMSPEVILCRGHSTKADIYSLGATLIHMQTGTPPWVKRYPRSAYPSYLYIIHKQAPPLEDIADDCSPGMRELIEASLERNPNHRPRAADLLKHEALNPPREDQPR
Test: High Throughput Cot Biochemical Assay (KinEASE TR-FRET)
Conditions: Cot KinEASE TR-FRET (HTRF) biochemical assay, 400 μM ATP; read-out: IC50 HTRF
OUTCOME MEASURE: IC50 (nM)

# COMPOUND, UNITS SYMBOL, VALUE REPORTED
measured = [
    ("[2H]C(Nc1cc(Cl)c2ncc(C#N)c(N[C@@H]3CCCC[C@@H]3N)c2c1)(c1ccc(F)cc1)c1cn(C2CC2)nn1 (stereo in doubt)", "nM", 807),
    ("[2H]C(Nc1cc(Cl)c2ncc(C#N)c(NCC(C)(C)C)c2c1)(c1cn(C2(C)CC2)nn1)c1ccccc1Cl (stereo not drawn)", "nM", 14),
    ("CC(C)(C)N1CCC(n2cc([C@@H](Nc3cc(Cl)c4ncc(C#N)c(Nc5ccc(F)c(Cl)c5)c4c3)c3cccc(C=O)c3)nn2)CC1", "nM", 5),
    ("[2H][C@](Nc1cc(Cl)c2ncc(C#N)c(NN(CC)c3ccccc3)c2c1)(c1ccc(F)cc1)c1cn(C2CC2)nn1", "nM", 8200),
    ("N#Cc1cnc2c(Cl)cc(N[C@H](c3cn(C4CC4)nn3)c3cccc(Cl)c3Cl)cc2c1Nc1cnc(F)c(F)c1", "nM", 24),
    ("[2H][C@](Nc1cc(Cl)c2ncc(C#N)c(N[C@@H](CC#N)c3ccccc3)c2c1)(c1ccc(F)cc1)c1cn(C2CC2)nn1", "nM", 258),
]

* * *

Biological target: human Cot catalytic domain (30-397 amino acids) (Homo sapiens, UniProt P41279)
Construct: Purified recombinant human Cot catalytic domain (30-397 amino acids) was purchased from Cama Biosciences; purchased Cama Biosciences (so in the source)
Assay: High Throughput Cot Biochemical Assay (KinEASE TR-FRET)
Conditions: Cot KinEASE TR-FRET (HTRF) biochemical assay, 400 μM ATP; read-out: IC50 HTRF
pIC50: −log10 of the molar value.

# COMPOUND, pIC50
data = [
    ("[2H][C@](Nc1cc(Cl)c2ncc(C#N)c(N[C@@H]3CCC[C@@H](O)C3)c2c1)(c1ccc(F)cc1)c1cn(C2CC2)nn1", 5.74),
    ("[2H][C@@](Nc1cc(Cl)c2ncc(C#N)c(NCC(C)(C)C)c2c1)(c1cn(C23CC(C2)C3)nn1)c1ccccc1Cl", 7.66),
    ("[2H][C@](Nc1cc(Cl)c2ncc(C#N)c(NCCC(C)C)c2c1)(c1ccc(F)cc1)c1cn(C2CC2)nn1", 6.78),
    ("[2H][C@](Nc1cc(Cl)c2ncc(C#N)c(NC3C4CC5CC(C4)CC3C5)c2c1)(c1ccc(F)cc1)c1cn(C2CC2)nn1 (stereo partly drawn)", 7.72),
    ("[2H][C@](Nc1cc(Cl)c2ncc(C#N)c(N[C@H](CC)c3cccc(F)c3)c2c1)(c1ccc(F)cc1)c1cn(C2CC2)nn1", 8.40),
    ("[2H][C@](Nc1cc(C#N)c2ncc(C#N)c(NCC(C)(C)C)c2c1)(c1ccc(F)cc1)c1cn(C2CC2)nn1", 8.40),
]

meta.source: patent US10316017B2
